experiment: in vivo; settings: C3HeB/FeJ, mouse, po, 25 mg/kg, tmax, whole lung, single 25 mg/kg oral dose of BDQ

>  <structure_notation>
COc1nc2ccc(Br)cc2cc1[C@@H](c1ccccc1)[C@@](O)(CCN(C)C)c1cccc2ccccc12

>  <Tmax / h>
8

$$$$

---

assay: in vivo; settings: BALB/c, mouse, po, 150 mg/kg, Cmax, uninvolved lung, single 150 mg/kg oral dose of PZA
Listed here are compounds together with their documented Cmax.
assay_endpoint: Cmax (ng/g)

>  <compound>
NC(=O)c1cnccn1 [PZA, pyrazinamide]

>  <number>
93600

$$$$
>  <compound>
O=C(O)c1cnccn1

>  <number>
10300

$$$$

---

experiment: in vivo; conditions: C3HeB/FeJ, mouse, po, 25 mg/kg, tmax, uninvolved lung, single 25 mg/kg oral dose of BDQ
assay_endpoint: Tmax (h)

>  <structure_notation>
COc1nc2ccc(Br)cc2cc1[C@@H](c1ccccc1)[C@@](O)(CCN(C)C)c1cccc2ccccc12

>  <measure_unit>
h

>  <number>
8

$$$$

---

test: in vivo; settings: C3HeB/FeJ, mouse, po, 25 mg/kg

>  <structure_notation>
COc1nc2ccc(Br)cc2cc1[C@@H](c1ccccc1)[C@@](O)(CCN(C)C)c1cccc2ccccc12

>  <AUC(0-t)>
35900 ng·h/mL

$$$$

---

assay: in vivo; settings: BALB/c, mouse, po, 150 mg/kg, t1/2, BALB/c, whole lung, single 150 mg/kg oral dose of PZA

>  <compound>
O=C(O)c1cnccn1

>  <half-life, min>
14.4

$$$$
>  <compound>
NC(=O)c1cnccn1 [PZA, pyrazinamide]

>  <half-life, min>
61.2

$$$$

---

assay: in vivo; conditions: BALB/c, mouse, po, 150 mg/kg, tmax, lesion (type III), single 150 mg/kg oral dose of PZA

>  <compound>
O=C(O)c1cnccn1

>  <Tmax [min]>
60

$$$$
>  <compound>
NC(=O)c1cnccn1 [PZA, pyrazinamide]

>  <Tmax [min]>
30

$$$$

---

test: in vivo; details: C3HeB/FeJ, mouse, po, 150 mg/kg, AUCWL/AUCplasma, whole lung, single 150 mg/kg oral dose of PZA

>  <compound>
O=C(O)c1cnccn1 [POA, pyrazinoic acid]

>  <Kp>
0.75

$$$$

---

assay: in vivo; conditions: C3HeB/FeJ, mouse, po, 150 mg/kg, tmax, uninvolved lung, single 150 mg/kg oral dose of PZA
assay_endpoint: Tmax (h)

>  <molecule>
NC(=O)c1cnccn1 [PZA, pyrazinamide]

>  <assay_endpoint>
Tmax

>  <measure_unit>
h

>  <number>
1

$$$$
>  <molecule>
O=C(O)c1cnccn1

>  <assay_endpoint>
Tmax

>  <measure_unit>
h

>  <number>
1

$$$$

---

assay: in vivo; details: C3HeB/FeJ, mouse, po, 25 mg/kg, tmax, plasma, single 25 mg/kg oral dose of BDQ
assay_endpoint: Tmax (h)

>  <structure_notation>
COc1nc2ccc(Br)cc2cc1[C@@H](c1ccccc1)[C@@](O)(CCN(C)C)c1cccc2ccccc12

>  <measure_unit>
h

>  <number>
4

$$$$

---

assay: in vivo; details: BALB/c, mouse, po, 150 mg/kg, Cmax, lesion (cellular non-necrotizing, type III), single 150 mg/kg oral dose of PZA
Recorded Cmax by entry
assay_endpoint: Cmax

>  <molecule>
NC(=O)c1cnccn1 [PZA, pyrazinamide]

>  <assay_endpoint>
Cmax

>  <result>
146000 ng/g

$$$$
>  <molecule>
O=C(O)c1cnccn1

>  <assay_endpoint>
Cmax

>  <result>
25000 ng/g

$$$$

---

assay: in vivo; conditions: BALB/c, mouse, po, 150 mg/kg, tmax, whole lung, single 150 mg/kg oral dose of PZA
Reported Tmax values for a set of molecules

>  <molecule>
O=C(O)c1cnccn1

>  <Tmax (min)>
30

$$$$
>  <molecule>
NC(=O)c1cnccn1 [PZA, pyrazinamide]

>  <Tmax (min)>
30

$$$$

---

test: in vivo; details: BALB/c, mouse, po, 25 mg/kg, t1/2, BALB/c, whole lung, single 25 mg/kg oral dose of BDQ
assay_endpoint: half-life (h)

>  <structure_notation>
COc1nc2ccc(Br)cc2cc1[C@@H](c1ccccc1)[C@@](O)(CCN(C)C)c1cccc2ccccc12

>  <number>
74.5

$$$$

---

test: in vivo; conditions: BALB/c, mouse, po, 25 mg/kg, AUCLes/AUCplasma, lesion (type III), single 25 mg/kg oral dose of BDQ

>  <molecule>
COc1nc2ccc(Br)cc2cc1[C@@H](c1ccccc1)[C@@](O)(CCN(C)C)c1cccc2ccccc12 [BDQ, bedaquiline]

>  <Kp>
28.2

$$$$

---

experiment: in vivo; conditions: C3HeB/FeJ, mouse, po, 150 mg/kg, t1/2, C3HeB/FeJ, uninvolved lung, single 150 mg/kg oral dose of PZA
Measured half-life accompanies every entry in the list below.

>  <compound>
NC(=O)c1cnccn1 [PZA, pyrazinamide]

>  <measure_unit>
h

>  <half-life>
3.01

$$$$
>  <compound>
O=C(O)c1cnccn1

>  <measure_unit>
h

>  <half-life>
3.9

$$$$

---

assay: in vivo; conditions: C3HeB/FeJ, mouse, po, 150 mg/kg, Cmax, uninvolved lung, single 150 mg/kg oral dose of PZA
# Cmax values compiled below
assay_endpoint: Cmax (ng/g)

>  <molecule>
O=C(O)c1cnccn1

>  <measure_unit>
ng/g

>  <number>
8300

$$$$
>  <molecule>
NC(=O)c1cnccn1 [PZA, pyrazinamide]

>  <measure_unit>
ng/g

>  <number>
66200

$$$$

---

test: in vivo; conditions: C3HeB/FeJ, mouse, po, 25 mg/kg, Cmax, whole lung, single 25 mg/kg oral dose of BDQ

>  <structure_notation>
COc1nc2ccc(Br)cc2cc1[C@@H](c1ccccc1)[C@@](O)(CCN(C)C)c1cccc2ccccc12

>  <Cmax (ng/g)>
22900

$$$$

---

assay: in vivo; conditions: C3HeB/FeJ, mouse, po, 25 mg/kg, Cmax, lesion (caseous necrotic granuloma, type I), single 25 mg/kg oral dose of BDQ
assay_endpoint: Cmax (ng/g)

>  <structure_notation>
COc1nc2ccc(Br)cc2cc1[C@@H](c1ccccc1)[C@@](O)(CCN(C)C)c1cccc2ccccc12

>  <number>
10100

$$$$

---

Measured half-life values are reported for all entries that follow.
assay: in vivo; settings: BALB/c, mouse, po, 150 mg/kg, t1/2, BALB/c, lesion (type III), single 150 mg/kg oral dose of PZA
assay_endpoint: half-life (min)

>  <compound>
NC(=O)c1cnccn1 [PZA, pyrazinamide]

>  <measure_unit>
min

>  <number>
57.6

$$$$
>  <compound>
O=C(O)c1cnccn1

>  <measure_unit>
min

>  <number>
49.8

$$$$

---

experiment: in vivo; conditions: BALB/c, mouse, po, 150 mg/kg, AUCWL/AUCplasma, whole lung, single 150 mg/kg oral dose of PZA

>  <structure_notation>
O=C(O)c1cnccn1

>  <Kp>
0.42

$$$$

---

test: in vivo; conditions: BALB/c, mouse, po, 150 mg/kg, t1/2, BALB/c, uninvolved lung, single 150 mg/kg oral dose of PZA

>  <compound>
NC(=O)c1cnccn1 [PZA, pyrazinamide]

>  <measure_unit>
min

>  <half-life>
45

$$$$
>  <compound>
O=C(O)c1cnccn1

>  <measure_unit>
min

>  <half-life>
14.4

$$$$

---

assay: in vivo; conditions: C3HeB/FeJ, mouse, po, 25 mg/kg, AUCLes/AUCplasma, lesion (type I), single 25 mg/kg oral dose of BDQ

>  <compound>
COc1nc2ccc(Br)cc2cc1[C@@H](c1ccccc1)[C@@](O)(CCN(C)C)c1cccc2ccccc12 [BDQ, bedaquiline]

>  <Kp>
10.8

$$$$

---

assay: in vivo; settings: C3HeB/FeJ, mouse, po, 25 mg/kg, Cmax, plasma, single 25 mg/kg oral dose of BDQ
assay_endpoint: Cmax (ng/mL)

>  <molecule>
COc1nc2ccc(Br)cc2cc1[C@@H](c1ccccc1)[C@@](O)(CCN(C)C)c1cccc2ccccc12 [BDQ, bedaquiline]

>  <measure_unit>
ng/mL

>  <number>
2720

$$$$

---

experiment: in vivo; details: C3HeB/FeJ, mouse, po, 150 mg/kg, t1/2, C3HeB/FeJ, lesion (type I), single 150 mg/kg oral dose of PZA

>  <compound>
NC(=O)c1cnccn1 [PZA, pyrazinamide]

>  <half-life (h)>
2.88

$$$$
>  <compound>
O=C(O)c1cnccn1

>  <half-life (h)>
12.1

$$$$

---

assay: in vivo; conditions: BALB/c, mouse, po, 150 mg/kg, AUCUL/AUCplasma, uninvolved lung, single 150 mg/kg oral dose of PZA

>  <molecule>
O=C(O)c1cnccn1 [POA, pyrazinoic acid]

>  <Kp>
0.31

$$$$

---

experiment: in vivo; conditions: C3HeB/FeJ, mouse, po, 25 mg/kg, tmax, lesion (type I), single 25 mg/kg oral dose of BDQ

>  <structure_notation>
COc1nc2ccc(Br)cc2cc1[C@@H](c1ccccc1)[C@@](O)(CCN(C)C)c1cccc2ccccc12

>  <Tmax>
8 h

$$$$

Taken from paper PMC4874602.
